Entry source: the supplement of paper PMC6555819

# System: THRa:RXRa (NR concentration 90 nM, RXRa partner concentration 90 nM)
# test: PBM binding z-score (relative to random genomic background probes); higher = stronger binding; sequences stand for … in GC…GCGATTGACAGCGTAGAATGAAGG
endpoint: PBM binding z-score

Examples with their reported PBM binding z-score follow.
sequence: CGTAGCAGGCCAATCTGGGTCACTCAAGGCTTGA
PBM binding z-score: 3.65
//
sequence: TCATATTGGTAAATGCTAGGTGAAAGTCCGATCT
PBM binding z-score: 0.808
//
sequence: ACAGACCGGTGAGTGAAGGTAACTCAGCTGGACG
PBM binding z-score: 0.21
//
sequence: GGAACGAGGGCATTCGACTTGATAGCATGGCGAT
PBM binding z-score: 0.81

Query: Give its PBM binding z-score value. Item: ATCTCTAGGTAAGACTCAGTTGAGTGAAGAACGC
Response: 0.492

Query: For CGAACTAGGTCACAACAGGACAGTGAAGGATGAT then?
Response: 4.09

Query: Please answer likewise for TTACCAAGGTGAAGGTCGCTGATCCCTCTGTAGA
Response: 2.41

Query: Request: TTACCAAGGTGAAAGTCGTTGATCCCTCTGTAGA
Response: 2

Query: Another sequence: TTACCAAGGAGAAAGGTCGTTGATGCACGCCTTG
Response: 1.48

Query: Subsequent entry: CGAACTAGGTCAAGGGCAGTGAATCTCCGCACGC
Response: 2.98

Query: Another sequence: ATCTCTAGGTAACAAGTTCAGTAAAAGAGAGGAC
Response: 1.85

Query: Can you check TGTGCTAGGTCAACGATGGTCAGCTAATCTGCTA next?
Response: 3

---

# System: VDR:RXRa (NR concentration 270 nM, RXRa partner concentration 90 nM)
# test: PBM binding z-score (relative to random genomic background probes); higher = stronger binding; sequences stand for … in GC…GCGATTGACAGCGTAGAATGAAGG
Rule: T for PBM binding z-score not less than 0.6, F for anything less.

Take a look at these entries with their results.
sequence: ATCTCTCGGTAAAGTTCAGTGAAAGATCGATAGA
tested.target: VDR:RXRa (NR concentration 270 nM, RXRa partner concentration 90 nM)
group: T

sequence: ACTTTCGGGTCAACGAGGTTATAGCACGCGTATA
tested.target: VDR:RXRa (NR concentration 270 nM, RXRa partner concentration 90 nM)
group: T

sequence: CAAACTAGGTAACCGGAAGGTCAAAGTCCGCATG
tested.target: VDR:RXRa (NR concentration 270 nM, RXRa partner concentration 90 nM)
group: T

sequence: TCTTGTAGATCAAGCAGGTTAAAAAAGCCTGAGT
tested.target: VDR:RXRa (NR concentration 270 nM, RXRa partner concentration 90 nM)
group: T

sequence: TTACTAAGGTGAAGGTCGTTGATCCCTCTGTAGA
tested.target: VDR:RXRa (NR concentration 270 nM, RXRa partner concentration 90 nM)
group: T

sequence: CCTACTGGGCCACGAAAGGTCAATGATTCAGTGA
tested.target: VDR:RXRa (NR concentration 270 nM, RXRa partner concentration 90 nM)
group: T

sequence: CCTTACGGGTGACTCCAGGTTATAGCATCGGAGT
tested.target: VDR:RXRa (NR concentration 270 nM, RXRa partner concentration 90 nM)
group: F

sequence: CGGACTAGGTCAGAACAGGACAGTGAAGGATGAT
tested.target: VDR:RXRa (NR concentration 270 nM, RXRa partner concentration 90 nM)
group: F

sequence: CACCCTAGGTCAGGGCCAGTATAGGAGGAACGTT
tested.target: VDR:RXRa (NR concentration 270 nM, RXRa partner concentration 90 nM)
group: F

sequence: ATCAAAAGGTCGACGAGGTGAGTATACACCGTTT
tested.target: VDR:RXRa (NR concentration 270 nM, RXRa partner concentration 90 nM)
group: T

Query: Check the entry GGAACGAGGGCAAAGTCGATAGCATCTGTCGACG : does PBM binding z-score equal or exceed 0.6?
Response: F

Query: Do the same for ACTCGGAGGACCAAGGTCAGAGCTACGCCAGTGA please
Response: T

Query: Try this sequence too: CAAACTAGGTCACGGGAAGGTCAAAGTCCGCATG
Response: T

Query: Query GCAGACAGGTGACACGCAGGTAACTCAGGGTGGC next
Response: F

Query: Also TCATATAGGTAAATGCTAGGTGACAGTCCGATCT , if possible.
Response: T

Query: Can you handle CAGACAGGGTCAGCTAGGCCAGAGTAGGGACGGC next?
Response: T

Query: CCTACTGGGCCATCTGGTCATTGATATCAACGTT , same question.
Response: F

Query: Would you kindly repeat that for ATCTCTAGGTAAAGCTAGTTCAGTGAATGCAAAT ?
Response: T

Query: Please give the result for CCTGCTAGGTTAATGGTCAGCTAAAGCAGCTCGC too.
Response: F

Query: Try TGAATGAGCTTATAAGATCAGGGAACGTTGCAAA next.
Response: F

Query: Now this one: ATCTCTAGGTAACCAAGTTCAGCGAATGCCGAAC
Response: T

Query: What about this sequence? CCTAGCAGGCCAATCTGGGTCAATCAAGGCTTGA
Response: F

---

# System: RARb homodimer (NR concentration 270 nM)
# test: PBM binding z-score (relative to random genomic background probes); higher = stronger binding; sequences stand for … in GC…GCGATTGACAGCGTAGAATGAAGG
# cutoff 0.9 applies to PBM binding z-score; >= gives Yes, < gives No

Observe how each entry below is paired with its result.
sequence: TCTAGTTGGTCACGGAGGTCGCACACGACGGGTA
tested.target: RARb homodimer (NR concentration 270 nM)
group: Yes
--
sequence: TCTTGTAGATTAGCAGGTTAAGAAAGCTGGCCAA
tested.target: RARb homodimer (NR concentration 270 nM)
group: No
--
sequence: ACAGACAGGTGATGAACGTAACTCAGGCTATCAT
tested.target: RARb homodimer (NR concentration 270 nM)
group: No
--
sequence: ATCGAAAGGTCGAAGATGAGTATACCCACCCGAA
tested.target: RARb homodimer (NR concentration 270 nM)
group: Yes
--
sequence: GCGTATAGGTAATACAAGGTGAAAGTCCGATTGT
tested.target: RARb homodimer (NR concentration 270 nM)
group: Yes

Query: Assess whether reported PBM binding z-score for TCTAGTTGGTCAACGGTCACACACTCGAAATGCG sits at 0.9 or higher.
Response: Yes

Query: And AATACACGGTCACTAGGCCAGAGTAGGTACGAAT ?
Response: Yes

Query: Record: AATGCAGGGTCATCGTAGGCCAGAGTACGCACAG
Response: Yes

---

# Tested on: PPARg:RXRa DBDmut IVT, anti-RXR (DBD mutation: RXRa K156A/R161A, NR concentration 270 nM, RXRa partner concentration 90 nM)
# test: PBM binding z-score (relative to random genomic background probes); higher = stronger binding; sequences stand for … in GC…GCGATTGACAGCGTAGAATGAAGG
# label = yes if PBM binding z-score >= 2 else no

Known results for sequences:
sequence: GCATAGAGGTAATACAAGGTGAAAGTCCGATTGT
group: no
--
sequence: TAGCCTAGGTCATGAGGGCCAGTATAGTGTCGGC
group: yes
--
sequence: CCTACTGGGCCAAAGGTTATTGATTCCAATGCTC
group: yes
--
sequence: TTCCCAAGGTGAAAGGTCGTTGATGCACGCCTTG
group: no
--
sequence: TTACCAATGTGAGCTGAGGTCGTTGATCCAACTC
group: no

Query: Given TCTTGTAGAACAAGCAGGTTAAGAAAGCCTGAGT , state whether its PBM binding z-score is at least 2.
Response: no

Query: // same read-out, input: AGTCAAAGTTCAATAGGTAACGTAAGATTCAGCT
Response: no

Query: What would you report for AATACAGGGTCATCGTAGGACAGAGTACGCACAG ?
Response: yes

Query: Follow-up entry: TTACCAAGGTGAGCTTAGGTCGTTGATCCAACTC
Response: no

Query: Then this sequence: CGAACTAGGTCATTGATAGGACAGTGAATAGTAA
Response: yes

Query: Moving on to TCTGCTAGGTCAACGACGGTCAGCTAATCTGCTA
Response: yes

Query: Again, but for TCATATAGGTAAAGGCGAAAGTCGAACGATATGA
Response: yes

---

# Test system: LXRb homodimer (NR concentration 270 nM)
# test: PBM binding z-score (relative to random genomic background probes); higher = stronger binding; sequences stand for … in GC…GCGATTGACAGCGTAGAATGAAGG
Classification by PBM binding z-score | ranges: bottom bin = under -0.03, middle bin = from -0.03 up to 0.6, top bin = 0.6 and over

Illustrative cases are given below, each with its answer.
sequence: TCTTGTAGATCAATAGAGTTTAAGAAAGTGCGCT
group: bottom bin
//
sequence: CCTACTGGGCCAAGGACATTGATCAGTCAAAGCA
group: bottom bin

Query: Lab note: which band did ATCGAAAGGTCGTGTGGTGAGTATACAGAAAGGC land in?
Response: top bin

Query: // same read-out, input: ACTTACGGGTCAACGAGGTTAGAGCACGCGTATA
Response: middle bin

Query: Continue with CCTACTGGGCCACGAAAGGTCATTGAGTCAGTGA
Response: middle bin

Query: Now consider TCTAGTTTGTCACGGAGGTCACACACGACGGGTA and answer again.
Response: top bin
